// provenance: paper PMC10663500

# ASSAY_SYSTEM: T1, mouse programmed cell death protein 1 Fc fusion protein (mPD-1-Fc), mPD-1 C60S (aa 25-167) (Mus musculus, UniProt Q02242, stabilised)
# T1 construct: not cleaved; source: Expi293F, purified (Protein A, SEC; dimeric fraction); not shown: Fc (human), C-terminal, kept
# RUN_DESCRIPTION: SPR; Carterra LSA; Fab from the ammonium sulfate precipitate of the culture supernatant immobilised on a NiHC200M chip; hPD-1 (1-1024 nM) or mPD-1-Fc (4-1024 nM) as analyte, fourfold dilution series, no regeneration; HBS-EP pH 7.4, 25 °C; medians over the spots of a construct, KD = koff/kon
# ASSAY_CONDITIONS: one partner purified
QUANTITY_MEASURED: Kd (nM)
Numbers only, in nM.

Consider the following illustrative entries.
BINDER	Kd, nM
toripalimab Fab L.P100R (Fab, V domains shown, as the heavy chain of Sm3; light chain of Sm3 with this change; numbers count from the chain's first residue; source: Brevibacillus, culture supernatant (ammonium sulfate precipitate); not shown: 6xHis, C-terminal, kept; 6xHN, C-terminal, kept) VH: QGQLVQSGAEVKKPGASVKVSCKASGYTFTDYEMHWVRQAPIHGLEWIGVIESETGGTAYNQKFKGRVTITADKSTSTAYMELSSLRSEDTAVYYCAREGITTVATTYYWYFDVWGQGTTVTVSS VL: DVVMTQSPLSLPVTLGQPASISCRSSQSIVHSNGNTYLEWYLQKPGQSPQLLIYKVSNRFSGVPDRFSGSGSGTDFTLKISRVEAEDVGVYYCFQGSHVRLTFGQGTKLEIK	24.7
toripalimab Fab L.H98A (Fab, V domains shown, as the heavy chain of Sm3; light chain of Sm3 with this change; numbers count from the chain's first residue; source: Brevibacillus, culture supernatant (ammonium sulfate precipitate); not shown: 6xHis, C-terminal, kept; 6xHN, C-terminal, kept) VH: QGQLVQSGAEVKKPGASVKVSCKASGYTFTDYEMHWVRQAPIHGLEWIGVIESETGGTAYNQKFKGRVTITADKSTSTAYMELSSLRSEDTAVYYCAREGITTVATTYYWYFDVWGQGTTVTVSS VL: DVVMTQSPLSLPVTLGQPASISCRSSQSIVHSNGNTYLEWYLQKPGQSPQLLIYKVSNRFSGVPDRFSGSGSGTDFTLKISRVEAEDVGVYYCFQGSAVPLTFGQGTKLEIK	120

Asked: # Kd lookup, item toripalimab Fab H.I51A (Fab, V domains shown, heavy chain of Sm3 with this change; numbers count from the chain's first residue; as the light chain of Sm3; source: Brevibacillus, culture supernatant (ammonium sulfate precipitate); not shown: 6xHis, C-terminal, kept; 6xHN, C-terminal, kept) VH: QGQLVQSGAEVKKPGASVKVSCKASGYTFTDYEMHWVRQAPIHGLEWIGVAESETGGTAYNQKFKGRVTITADKSTSTAYMELSSLRSEDTAVYYCAREGITTVATTYYWYFDVWGQGTTVTVSS VL: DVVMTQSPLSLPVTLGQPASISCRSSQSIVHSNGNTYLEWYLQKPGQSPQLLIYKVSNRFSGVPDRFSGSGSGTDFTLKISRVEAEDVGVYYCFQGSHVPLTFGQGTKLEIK
Given back: 630
